ASSAY SYSTEM: human M4 muscarinic acetylcholine receptor (Homo sapiens, UniProt P08173)
Sequence (P08173 whole entry): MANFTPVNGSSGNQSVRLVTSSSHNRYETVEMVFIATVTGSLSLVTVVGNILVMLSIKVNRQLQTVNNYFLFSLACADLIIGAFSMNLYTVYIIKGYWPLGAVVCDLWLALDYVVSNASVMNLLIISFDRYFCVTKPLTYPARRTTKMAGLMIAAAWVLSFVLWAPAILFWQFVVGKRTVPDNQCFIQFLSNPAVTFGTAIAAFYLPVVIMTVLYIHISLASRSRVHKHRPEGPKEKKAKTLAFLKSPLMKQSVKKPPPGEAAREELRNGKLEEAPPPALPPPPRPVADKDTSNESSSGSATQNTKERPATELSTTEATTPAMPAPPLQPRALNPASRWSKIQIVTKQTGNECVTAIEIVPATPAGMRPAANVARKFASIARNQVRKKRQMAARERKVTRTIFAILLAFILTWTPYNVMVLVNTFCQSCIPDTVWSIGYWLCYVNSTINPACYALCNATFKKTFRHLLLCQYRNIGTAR
PROTOCOL TEXT: human FLIPR-based M4 PAM assay, CHO-K1 cells stably transfected with human M4 receptor and chimeric G-protein Gαqi5
TEST CONDITIONS: inflection point (IP) of dose response curve; acetylcholine added at 20% of maximum response; CHO-K1 human M4/Gαqi5, FLIPR Tetra
Hi! Just check whether EC50 is below 300 nM. Below gives rule met, equal or above gives rule not met.

Use these answered entries as a reference point.
{"MOLECULE": "Cc1c(Cl)nc(CO)nc1N1CCC(Oc2ccc3ccn(C)c(=O)c3c2)CC1 [Example 9]", "GROUP": "rule not met"}
{"MOLECULE": "COc1ccc(OC2CCN(c3nc(C(=O)NC(C)(C)C)nc(Cl)c3C)CC2)cn1 [Example 212]", "GROUP": "rule not met"}

Lab note: EC50 threshold 300 nM. Does this molecule come in strictly under it? COc1ccc(OC2CCN(c3nc(CO)nc(Cl)c3C)CC2)cc1 [Example 47] rule met

Check if EC50 falls below 300 nM for COc1ccc(OC2CCN(c3ncnc(-c4ccoc4)c3C)CC2)cn1 [Example 252] . rule not met

Regarding COc1ccc(OC2CCN(c3nc(OC)nc(Cl)c3C)CC2)cn1 [Example 227] , kindly confirm whether its EC50 is beneath 300 nM. rule met

Decide: EC50 of Cc1ncc(C)c(N2CCC(Oc3ccc4c(c3)C(=O)OC4)CC2)n1 [Example 99] strictly below 300 nM? rule not met

For this molecule, is EC50 lower than 300 nM? Cc1ncc(C)c(N2CC[C@@H](Oc3cccc(C#N)c3)[C@H](F)C2)n1 [Example 71] rule met

Given the entry COc1ccc(OC2CCN(c3ncnc(N4Cc5cccnc5C4)c3C)CC2)cn1 [Example 232] , would its reported EC50 be below 300 nM? rule not met

----------
ASSAY SYSTEM: human M4 muscarinic acetylcholine receptor (Homo sapiens, UniProt P08173)
Construct: expressed in transfected cells; host or cells: CHO-K1
PROTOCOL TEXT: human FLIPR-based M4 PAM assay, CHO-K1 cells stably transfected with human M4 receptor and chimeric G-protein Gαqi5
Type: cell-based
TEST CONDITIONS: inflection point (IP) of dose response curve; acetylcholine added at 20% of maximum response; CHO-K1 human M4/Gαqi5, FLIPR Tetra
Recorded measurements of pEC50, one per entry
Expect pEC50 as a plain number equal to -log10 of the molar concentration.

In the examples that follow, each entry is paired with its recorded pEC50.
{"COMPOUND": "Cc1cc(C(=O)NCc2ccncc2)nnc1N1CCC(Oc2ccc3c(c2)OCCO3)CC1 [Example 108]", "ASSAY SYSTEM": "human M4 muscarinic acetylcholine receptor (Homo sapiens, UniProt P08173)", "pEC50": 7.74}
{"COMPOUND": "COc1ccc(OC2CCN(c3nnc(C(=O)N[C@H]4CCc5cccnc5C4)cc3C)CC2)cn1 [Example 126B]", "ASSAY SYSTEM": "human M4 muscarinic acetylcholine receptor (Homo sapiens, UniProt P08173)", "pEC50": 6.80}

// sample COc1ccc(OC2CCN(c3nnc(C(=O)NCc4cnn[nH]4)cc3C)CC2)cn1 [Example 118] , its pEC50 was 7.07

Value of pEC50 reported for the compound Cc1c(-c2ccc3c(c2)OCCO3)ncnc1N1CCC(Oc2cccc(C#N)c2)CC1 [Example 250] is 5.95

pEC50 recorded for this compound, COc1ccc(OC2CCN(c3nnc(C(=O)NCc4ccc5c(c4)CNC5=O)cc3C)CC2)cn1 [Example 175] , is 6.24

Per the record, Cc1cc(C(=O)NCc2ccccc2Cl)nnc1N1CCC(Oc2cccc(C#N)c2)CC1 [Example 199] has pEC50 of 6.93

The compound listed as C=Cc1ncnc(N2CCC(Oc3ccc(OC)nc3)CC2)c1C [Example 243] has a reported pEC50 of 6.47

For record COc1ncc(OC2CCN(c3nnc(C(=O)NCc4ccncc4)cc3C)CC2)cc1F [Example 140] the listed pEC50 is 6.75
